Measured values drawn from ChEMBL document CHEMBL4813918 for this set.

# Activity values compiled below
Target: Mitogen-activated protein kinase kinase kinase 20 (Homo sapiens) (UniProt Q9NYL2)
Sequence (Q9NYL2 2-800 limits assumed): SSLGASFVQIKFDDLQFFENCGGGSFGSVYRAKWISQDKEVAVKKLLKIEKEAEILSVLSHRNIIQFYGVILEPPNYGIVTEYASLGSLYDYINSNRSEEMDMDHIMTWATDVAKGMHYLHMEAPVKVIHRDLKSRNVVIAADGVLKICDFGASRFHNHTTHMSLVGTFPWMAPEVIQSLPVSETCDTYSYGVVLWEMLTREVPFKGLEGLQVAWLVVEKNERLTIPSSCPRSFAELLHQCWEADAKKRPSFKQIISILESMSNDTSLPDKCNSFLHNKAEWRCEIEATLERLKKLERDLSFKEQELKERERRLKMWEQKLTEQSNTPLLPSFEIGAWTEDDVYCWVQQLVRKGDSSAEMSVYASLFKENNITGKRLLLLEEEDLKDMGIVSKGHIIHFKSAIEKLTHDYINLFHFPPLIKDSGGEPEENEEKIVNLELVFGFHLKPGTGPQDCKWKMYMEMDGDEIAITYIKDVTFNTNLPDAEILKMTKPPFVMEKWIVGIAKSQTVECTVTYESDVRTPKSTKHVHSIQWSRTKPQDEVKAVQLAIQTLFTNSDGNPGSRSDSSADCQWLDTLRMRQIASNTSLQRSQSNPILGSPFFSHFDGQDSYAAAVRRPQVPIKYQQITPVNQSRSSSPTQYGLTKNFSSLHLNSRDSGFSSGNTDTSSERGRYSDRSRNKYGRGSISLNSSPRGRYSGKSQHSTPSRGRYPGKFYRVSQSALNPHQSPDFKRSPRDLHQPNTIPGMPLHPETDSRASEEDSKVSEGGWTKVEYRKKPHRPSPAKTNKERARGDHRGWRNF
Test: Binding affinity to wild type partial length human ZAK (M1 to L331) expressed in bacterial expression system assessed as residual activity at 100 nM measured by Kinomescan assay

chemical.smiles: O=C(c1c(F)ccc(NS(=O)(=O)c2ccccc2)c1F)c1c[nH]c2ncc(-c3ccc(Cl)cc3)cc12
study.target: Mitogen-activated protein kinase kinase kinase 20 (Homo sapiens) (UniProt Q9NYL2)
Activity [%]: 4.9

chemical.smiles: O=C(c1c(F)ccc(NS(=O)(=O)CCc2ccccc2)c1F)c1c[nH]c2ncc(-c3ccc(Cl)cc3)cc12
study.target: Mitogen-activated protein kinase kinase kinase 20 (Homo sapiens) (UniProt Q9NYL2)
Activity [%]: 53

chemical.smiles: CCCS(=O)(=O)Nc1ccc(F)c(C(=O)c2c[nH]c3ncc(-c4cnc(OC)nc4)cc23)c1F
study.target: Mitogen-activated protein kinase kinase kinase 20 (Homo sapiens) (UniProt Q9NYL2)
Activity [%]: 8.9

chemical.smiles: CCCS(=O)(=O)Nc1ccc(F)c(C(=O)c2c[nH]c3ncc(-c4ccccc4F)cc23)c1F
study.target: Mitogen-activated protein kinase kinase kinase 20 (Homo sapiens) (UniProt Q9NYL2)
Activity [%]: 2.9

chemical.smiles: Cc1cc(F)ccc1-c1cnc2[nH]cc(C(=O)c3cccc(NS(=O)(=O)Cc4ccccc4)c3F)c2c1
study.target: Mitogen-activated protein kinase kinase kinase 20 (Homo sapiens) (UniProt Q9NYL2)
Activity [%]: 90

====

Biological target: Dual specificity mitogen-activated protein kinase kinase 7 (Homo sapiens) (UniProt O14733)
Sequence (O14733 whole entry, the tested form may be a part): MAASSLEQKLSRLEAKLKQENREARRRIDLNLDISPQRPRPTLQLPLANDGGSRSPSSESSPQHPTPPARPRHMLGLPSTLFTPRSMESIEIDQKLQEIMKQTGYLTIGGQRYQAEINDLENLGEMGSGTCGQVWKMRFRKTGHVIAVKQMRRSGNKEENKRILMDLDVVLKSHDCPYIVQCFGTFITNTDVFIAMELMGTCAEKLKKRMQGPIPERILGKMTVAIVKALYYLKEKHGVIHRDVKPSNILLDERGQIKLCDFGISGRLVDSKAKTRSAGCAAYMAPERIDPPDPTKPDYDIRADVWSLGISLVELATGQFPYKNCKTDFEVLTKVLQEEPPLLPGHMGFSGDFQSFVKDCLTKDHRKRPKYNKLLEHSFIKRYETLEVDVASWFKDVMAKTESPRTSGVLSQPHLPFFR
Experiment: Binding affinity to wild type full length human MKK7 (M1 to R419 residues) expressed in mammalian expression system assessed as residual activity at 100 nM measured by Kinomescan assay
Entries and their Activity
observation.type: Activity (%)

compound: CCCS(=O)(=O)Nc1ccc(F)c(C(=O)c2c[nH]c3ncc(-c4ccc(OC)c(OC)c4)cc23)c1F
observation.type: Activity
numeric.readout: 84
//
compound: CCCS(=O)(=O)Nc1cccc(C(=O)c2c[nH]c3ncc(-c4ccc(Cl)cc4)cc23)c1
observation.type: Activity
numeric.readout: 100
//
compound: COc1ncc(-c2cnc3[nH]cc(C(=O)c4cccc(NS(=O)(=O)Cc5ccccc5)c4F)c3c2)cn1
observation.type: Activity
numeric.readout: 70
//
compound: CCCS(=O)(=O)Nc1ccc(F)c(C(=O)c2c[nH]c3ncc(-c4ccc(Cl)cc4)cc23)c1F [VEMURAFENIB]
observation.type: Activity
numeric.readout: 100

====

Target: Mitogen-activated protein kinase kinase kinase 20 (Homo sapiens)
Assay: Binding affinity to wild type partial length human ZAK (M1 to L331) expressed in bacterial expression system assessed as residual activity at 100 nM measured by Kinomescan assay
The threshold is inclusive: Activity of exactly 4% counts as YES; values below receive NO.

chemical.smiles: O=C(c1c(F)ccc(NS(=O)(=O)CCCF)c1F)c1c[nH]c2ncc(-c3ccc(Cl)cc3)cc12
qualitative.label: NO

chemical.smiles: CCCCCS(=O)(=O)Nc1ccc(F)c(C(=O)c2c[nH]c3ncc(-c4ccc(Cl)cc4)cc23)c1F
qualitative.label: YES

chemical.smiles: CCCS(=O)(=O)Nc1ccc(F)c(C(=O)c2c[nH]c3ncc(-c4cnccn4)cc23)c1F
qualitative.label: YES

chemical.smiles: CCCS(=O)(=O)Nc1ccc(F)c(C(=O)c2c[nH]c3ncc(-c4cccc(C)c4)cc23)c1F
qualitative.label: NO

chemical.smiles: CCCCS(=O)(=O)Nc1ccc(F)c(C(=O)c2c[nH]c3ncc(-c4ccc(Cl)cc4)cc23)c1F
qualitative.label: YES

chemical.smiles: O=C(c1c(F)ccc(NS(=O)(=O)CCC(F)(F)F)c1F)c1c[nH]c2ncc(-c3ccc(Cl)cc3)cc12
qualitative.label: NO

chemical.smiles: CCCS(=O)(=O)Nc1ccc(F)c(C(=O)c2c[nH]c3ncc(-c4ccc(C)cc4)cc23)c1F
qualitative.label: NO

chemical.smiles: CCCS(=O)(=O)Nc1ccc(F)c(C(=O)c2c[nH]c3ncc(-c4cccs4)cc23)c1F
qualitative.label: NO

chemical.smiles: O=C(c1cccc(NS(=O)(=O)Cc2ccccc2)c1F)c1c[nH]c2ncc(-c3ccncc3)cc12
qualitative.label: NO

chemical.smiles: O=C(c1cccc(NS(=O)(=O)Cc2ccccc2)c1F)c1c[nH]c2ncc(-c3cnc(C4CC4)nc3)cc12
qualitative.label: YES

chemical.smiles: CCCS(=O)(=O)Nc1ccc(F)c(C(=O)c2c[nH]c3ncc(-c4ccc(F)cc4F)cc23)c1F
qualitative.label: YES

chemical.smiles: CCCS(=O)(=O)Nc1ccc(F)c(C(=O)c2c[nH]c3ncc(-c4ccc(Cl)cc4)cc23)c1F
qualitative.label: YES

chemical.smiles: CCCCCCS(=O)(=O)Nc1ccc(F)c(C(=O)c2c[nH]c3ncc(-c4ccc(Cl)cc4)cc23)c1F
qualitative.label: YES

chemical.smiles: Cc1ccc(CS(=O)(=O)Nc2ccc(F)c(C(=O)c3c[nH]c4ncc(-c5ccc(Cl)cc5)cc34)c2F)cc1
qualitative.label: YES

chemical.smiles: CCCS(=O)(=O)Nc1ccc(F)c(C(=O)c2c[nH]c3ncc(-c4ccc(OC)cc4F)cc23)c1F
qualitative.label: YES

chemical.smiles: CCCS(=O)(=O)Nc1ccc(F)c(C(=O)c2c[nH]c3ncc(-c4ccc(OC)c(OC)c4)cc23)c1F
qualitative.label: YES

chemical.smiles: CS(=O)(=O)Nc1ccc(F)c(C(=O)c2c[nH]c3ncc(-c4ccc(Cl)cc4)cc23)c1F
qualitative.label: NO
